Reference source for all entries: patent US20250257111A1

System: 1:1 complex of F′GG-CB[8]
PROTOCOL_DESCRIPTION: ITC: secondary association of tripeptides with the 1:1 complex of F′GG-CB[8]
Type: binding
CONDITION_INFO: 10 mM phosphate buffer pH 7.0, 298 K, averaged with three replicates
Square brackets hold non-standard residues; d marks the D form. Peptide text beside a SMILES is read from it. 2Nal = N[C@@H](Cc1ccc2ccccc2c1)C(=O)O
MEASUREMENT_KIND: Ka

Completed entries (count: 2):
NCC(=O)N[C@@H](Cc1ccc(O)cc1)C(=O)NCC(N)=O [GYG] (H-Gly-Tyr-Gly-NH2): 4 ± 0.3 10^3M^−1
NC(=O)CNC(=O)CNC(=O)[C@@H](N)Cc1ccc(O)cc1 [YGG] (H-Tyr-Gly-Gly-NH2): 3 ± 5 10^3M^−1

Query: Value lookup for Ka; key = NCC(=O)NCC(=O)N[C@@H](Cc1ccccc1)C(N)=O [GGF] (H-Gly-Gly-Phe-NH2)
Reply: 22 ± 1 10^3M^−1

Query: Let us now turn to NC(=O)CNC(=O)CNC(=O)[C@@H](N)Cc1ccccc1 [FGG] (H-Phe-Gly-Gly-NH2)
Reply: 356 ± 26 10^3M^−1

Query: Let us now turn to NCC(=O)N[C@@H](Cc1ccccc1)C(=O)NCC(N)=O [GFG] (H-Gly-Phe-Gly-NH2)
Reply: 58 ± 3 10^3M^−1

Query: Let us now turn to NC(=O)CNC(=O)CNC(=O)[C@@H](N)Cc1ccc2ccccc2c1 [NpGG] (H-[2Nal]-Gly-Gly-NH2)
Reply: 382 ± 22 10^3M^−1

----------
Tested on: 1:1 complex of F′GG-CB[8]
PROTOCOL_DESCRIPTION: ITC: secondary association of tripeptides with the 1:1 complex of F′GG-CB[8]
Assay type: binding
CONDITION_INFO: 10 mM phosphate buffer pH 7.0, 298 K, averaged with three replicates
Square brackets hold non-standard residues; d marks the D form. Peptide text beside a SMILES is read from it. 2Nal = N[C@@H](Cc1ccc2ccccc2c1)C(=O)O
Overview of recorded Ka for various compounds

Completed entries (count: 3):
NCC(=O)NCC(=O)N[C@@H](Cc1ccc2ccccc2c1)C(N)=O [GGNp] (H-Gly-Gly-[2Nal]-NH2): 90 ± 2 10^3M^−1
NCC(=O)N[C@@H](Cc1c[nH]c2ccccc12)C(=O)NCC(N)=O [GWG] (H-Gly-Trp-Gly-NH2): 103 ± 6 10^3M^−1
NC(=O)CNC(=O)CNC(=O)[C@@H](N)Cc1c[nH]c2ccccc12 [WGG] (H-Trp-Gly-Gly-NH2): 460 ± 53 10^3M^−1

Query: Value lookup for Ka; key = NCC(=O)N[C@@H](Cc1ccc2ccccc2c1)C(=O)NCC(N)=O [GNpG] (H-Gly-[2Nal]-Gly-NH2)
Reply: 165 ± 10 10^3M^−1

----------
Test system: 1:1 complex of F′GG-CB[8]
PROTOCOL_DESCRIPTION: ITC: secondary association of tripeptides with the 1:1 complex of F′GG-CB[8]
Assay type: binding
CONDITION_INFO: in words
Peptide text beside a SMILES is read from it.
MEASUREMENT_KIND: secondary association / binding to F′GG-CB[8]

CC(C)C[C@H](N)C(=O)NCC(=O)NCC(N)=O [LGG, reference compound] (H-Leu-Gly-Gly-NH2): no secondary association
NC(=O)CNC(=O)CNC(=O)[C@@H](N)CCC(=O)O [EGG, reference compound] (H-Glu-Gly-Gly-NH2): no secondary association
NCCCC[C@H](N)C(=O)NCC(=O)NCC(N)=O [KGG, reference compound] (H-Lys-Gly-Gly-NH2): no secondary association
